- measurement_target: T1, AF9 YEATS domain, His-AF9 (1-138) (human, UniProt P42568 1-138)
- T1 construct: Expressed in E. coli; not shown: His tag
- T1 sequence (looked up): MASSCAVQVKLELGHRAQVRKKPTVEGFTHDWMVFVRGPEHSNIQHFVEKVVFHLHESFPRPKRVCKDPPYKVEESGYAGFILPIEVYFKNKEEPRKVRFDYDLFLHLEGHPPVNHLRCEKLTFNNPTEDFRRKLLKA
- experiment_description: photo-cross-linking competition vs photoaffinity probe, in-gel fluorescence
No end group written: not given here. *: point of attachment. Crotonyl(E) = C/C=C/C(=O)*; 2Furoyl = O=C(c1ccco1)*; Cbz = O=C(OCc1ccccc1)*
reported_property: log10(IC50) (log10 of the value in nM)
All values: log10 IC50 [nM].

binder | log10(IC50)
Cbz-QAARK(2Furoyl)-NH2 (SMILES C[C@H](NC(=O)[C@H](C)NC(=O)[C@H](CCC(N)=O)NC(=O)OCc1ccccc1)C(=O)N[C@@H](CCCNC(=N)N)C(=O)N[C@@H](CCCCNC(=O)c1ccco1)C(N)=O, Full structure only as drawing) [compound 53 (competitor T6-A)] | 2.86

Notebook: Cbz-QTLRK(2Furoyl)-NH2 (SMILES CC(C)C[C@H](NC(=O)[C@@H](NC(=O)[C@H](CCC(N)=O)NC(=O)OCc1ccccc1)[C@@H](C)O)C(=O)N[C@@H](CCCNC(=N)N)C(=O)N[C@@H](CCCCNC(=O)c1ccco1)C(N)=O, Full structure only as drawing) [compound 47 (competitor A7-L)] , log10(IC50) read as 2.53

Notebook: KQTARK(Crotonyl(E))STGG-NH2 (N-terminus assumed; SMILES C/C=C/C(=O)NCCCC[C@H](NC(=O)[C@H](CCCNC(=N)N)NC(=O)[C@H](C)NC(=O)[C@@H](NC(=O)[C@H](CCC(N)=O)NC(=O)[C@@H](N)CCCCN)[C@@H](C)O)C(=O)N[C@@H](CO)C(=O)N[C@H](C(=O)NCC(=O)NCC(N)=O)[C@@H](C)O) [compound 85 (positive control), H3K9cr peptide] , log10(IC50) read as 3.78

Notebook: Cbz-QTWRK(2Furoyl)-NH2 (SMILES C[C@@H](O)[C@H](NC(=O)[C@H](CCC(N)=O)NC(=O)OCc1ccccc1)C(=O)N[C@@H](Cc1c[nH]c2ccccc12)C(=O)N[C@@H](CCCNC(=N)N)C(=O)N[C@@H](CCCCNC(=O)c1ccco1)C(N)=O, Full structure only as drawing) [compound 49 (competitor A7-W)] , log10(IC50) read as 2.51

Notebook: Cbz-QSARK(2Furoyl)-NH2 (SMILES C[C@H](NC(=O)[C@H](CO)NC(=O)[C@H](CCC(N)=O)NC(=O)OCc1ccccc1)C(=O)N[C@@H](CCCNC(=N)N)C(=O)N[C@@H](CCCCNC(=O)c1ccco1)C(N)=O, Full structure only as drawing) [compound 55 (competitor T6-S)] , log10(IC50) read as 2.89

Notebook: KQTARK(2Furoyl)STGG-NH2 (N-terminus assumed; SMILES C[C@H](NC(=O)[C@@H](NC(=O)[C@H](CCC(N)=O)NC(=O)[C@@H](N)CCCCN)[C@@H](C)O)C(=O)N[C@@H](CCCNC(=N)N)C(=O)N[C@@H](CCCCNC(=O)c1ccco1)C(=O)N[C@@H](CO)C(=O)N[C@H](C(=O)NCC(=O)NCC(N)=O)[C@@H](C)O, also called 4.7) [compound 7 (XL-07)] , log10(IC50) read as 3.11

Origin of measurements: patent US20210277061A1
